Data provenance: patent US20120251547A1

molecular target: T1, huIL-17RA-FLAG-polyHis (human, UniProt Q96F46 33-320); experiment: binning; IL-17RA held by bead mAb Q
T1 construct: also called IL-17RA-FLAG-pHis; wild-type IL-17RA
Reported normalized MFI values for the following binders.
// no unit string in output, number only

Completed entries (count: 2):
AMH11/AML11 (antibody, IgG2, V domains shown, human mAb from IgG2 XenoMouse mice; also called AM-11; antibody A) VH: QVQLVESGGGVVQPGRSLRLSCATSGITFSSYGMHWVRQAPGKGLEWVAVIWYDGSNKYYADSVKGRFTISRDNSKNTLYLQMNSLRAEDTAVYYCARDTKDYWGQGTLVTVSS VL: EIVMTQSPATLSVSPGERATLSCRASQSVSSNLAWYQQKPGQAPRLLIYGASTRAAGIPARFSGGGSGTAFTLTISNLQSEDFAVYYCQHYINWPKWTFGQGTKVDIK = 9650
AMH20/AML20 (antibody, IgG2, V domains shown, human mAb from IgG2 XenoMouse mice; also called AM-20; antibody R) VH: EVQLVESGGGLVQPGGSLRLSCAASGFTFSSYSMNWVRQAPGKGLEWVSFISARSSTIYYADSVKGRFTISRDNAKNSLYLQMNSLRDEDTAVYYCARPKVGGGMDVWGQGTTVTVSS VL: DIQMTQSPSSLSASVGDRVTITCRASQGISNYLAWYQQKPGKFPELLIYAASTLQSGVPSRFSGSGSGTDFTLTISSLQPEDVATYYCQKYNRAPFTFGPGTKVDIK = 60

With those in mind, consider the next binder.
// query normalized MFI value for entry AMH16/AML16 (antibody, IgG2, V domains shown, human mAb from IgG2 XenoMouse mice; also called AM-16; antibody O) VH: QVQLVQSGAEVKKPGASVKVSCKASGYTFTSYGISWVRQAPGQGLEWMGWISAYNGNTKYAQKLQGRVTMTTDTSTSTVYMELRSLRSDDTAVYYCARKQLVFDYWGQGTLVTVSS VL: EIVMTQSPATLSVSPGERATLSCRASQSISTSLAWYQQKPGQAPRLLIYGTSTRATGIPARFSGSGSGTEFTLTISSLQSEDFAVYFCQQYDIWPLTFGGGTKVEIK
135
